Target: T1, recombinant human RNF43 extracellular domain (human, UniProt Q68DV7 24-197)
T1 construct: extracellular domain; also called huRNF43; human RNF43 ECD
T1 sequence (looked up): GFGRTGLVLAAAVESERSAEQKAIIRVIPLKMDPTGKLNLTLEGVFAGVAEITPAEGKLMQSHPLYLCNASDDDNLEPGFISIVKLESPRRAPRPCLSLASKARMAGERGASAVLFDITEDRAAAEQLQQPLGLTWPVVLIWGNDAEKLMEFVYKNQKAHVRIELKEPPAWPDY
Test: SPR Biacore 8K; antibody captured on Protein A; RNF43 ECD analyte; 25 C
Procedure: Antibodies were screened for binding to recombinant human RNF43 and ZNRF3 ECDs using a Biacore® 8 k instrument (GE Life Sciences). […] Binding of recombinant human RNF43 and ZNRF3 extracellular domain to the captured antibodies was analyzed at 25° C. using a single cycle kinetics method with a flow rate of 30 μl/minute, a contact time of 180 seconds and a dissociation time of 600 seconds. […] Data were evaluated using Biacore 8K Evaluation software (GE Life Sciences). […]
For each record, write down the corresponding Kd.
Field format: number, assumed pM, no unit text.

# Kd (binder: RNF43-31 (antibody, V domains shown, Rat clone; VH/VL only) VH: AVQLVESGGGSVQPGRSMRLSCAASGFTFSNYDMTWVRQAPTKGLEWVASITYDGGSTYSRDSVKGRFTISRDNAKSTLYLQMDSLRSEDTATYYCTTDRGRYLPYYFDYWGQGVMVTVSA VL: DVVLTQTPVSLSVTLGDQASISCRSSQSLEYSDGYSYLEWYLQKPGQSPQLLIYEVSSRFSGVPDRFIGSGSGTDFTLKISRVEPEDLGVYYCFQAIHDPTFGAGTKLELK ) is 130

# Kd (binder: RNF43-196 (antibody, V domains shown, Rat clone; VH/VL only) VH: QVQLQQSGAELVKPGSSVKISCKASGFTFTSNFMHWIKQQPGNGLEWIGWIYPGDGDTDYNQKFNGKATLTADKSSSTAYMELSSLTSEDSAVYFCARAYYGSYWYFDFWGPGTKVTVSS VL: DVQMTQSPHNLAASPGESVSINCKASKSISKYLAWYQQKPGKVKKLLIYGGSTLQSGIPSRFSGSGSGTDFTLTISSLEPEDFGLYYCQQHNEYPPTFGGGTRLELQ ) is 114

# Kd (binder: RNF43-206 (antibody, V domains shown, Rat clone; VH/VL only) VH: QVQLKESGPGLVQPSQTLSLTCTVSGFSLTSFHISWVRQPPGKGLEWMGIIWTGGSTAYNSLLKSRLSISRDISKSQVFLKMNSLQTEDTATYYCAGSYHGYTSYFDYWGQGVMVTVSS VL: DIQMTQSPASLSASPEEIVTITCQASQDIDNWLAWYQQQPGKSPQLLIYSATSLADGIPSRFSGSRSGTQYSLKINRLQVEDTGIYYCLQRYSNPWTFGGGTKLELK ) is 580
